B1: SPOPL (parent)
chain: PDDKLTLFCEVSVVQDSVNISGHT

# Variants of: B1
# Experiment Notes: protein stability index of a GFP-peptide fusion (GPS, HEK-293T) (PSI 1-6); higher = more stable;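 note: lentivirally expressed fusions sorted by FACS into six bins by GFP to DsRed ratio, PSI derived from sequencing read proportions per bin multiplied by bin number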
# Condition Summary: c terminus: a fixed tail appended
Threshold rule: protein stability index greater than or equal to 3 is Yes; below that, No.

Illustrative cases are given below, each with its answer.
[
  {
    "Mutant Label": "P1G",
    "Class Name": "No"
  },
  {
    "Mutant Label": "E10I",
    "Class Name": "No"
  },
  {
    "Mutant Label": "I20K",
    "Class Name": "No"
  },
  {
    "Mutant Label": "V14W",
    "Class Name": "No"
  },
  {
    "Mutant Label": "P1W",
    "Class Name": "No"
  },
  {
    "Mutant Label": "F8D",
    "Class Name": "Yes"
  },
  {
    "Mutant Label": "C9E",
    "Class Name": "Yes"
  },
  {
    "Mutant Label": "L5Q",
    "Class Name": "Yes"
  },
  {
    "Mutant Label": "D3E",
    "Class Name": "No"
  },
  {
    "Mutant Label": "H23I",
    "Class Name": "No"
  }
]

Request: Hi team, for V14F , is the recorded protein stability index at or above 3?
Result: No

Request: Determine whether measured protein stability index meets or exceeds 3 for E10S
Result: No
